Listed here: items and their measured pKd.
target: FKBP12 (Homo sapiens (Human), UniProt P62942); assay: FKBP12 binding assay (fluorescence polarization); settings: read-out: Kd FKBP12
Sequence (P62942 whole entry): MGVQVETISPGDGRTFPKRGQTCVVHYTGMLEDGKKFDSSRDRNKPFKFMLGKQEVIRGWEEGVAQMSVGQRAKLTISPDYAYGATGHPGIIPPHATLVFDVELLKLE
pKd: −log10 of the molar value.
measuredQuantity: pKd

- compound: "CCC(C)(C)C(=O)C(=O)N1CCCC[C@H]1C(=O)O[C@H](CCc1ccc(OC)c(OC)c1)c1cccc(N(CC(=O)O)CC(=O)O)c1 [ZZY01-060B]"
  targetOrSystem: "FKBP12 (Homo sapiens (Human), UniProt P62942)"
  quantitativeResult: 7.12
- compound: "CCC(C)(C)C(=O)C(=O)N1CCCC[C@H]1C(=O)O[C@H](CCc1ccc(OC)c(OC)c1)c1cccc(OCCN)c1"
  targetOrSystem: "FKBP12 (Homo sapiens (Human), UniProt P62942)"
  quantitativeResult: 8.03
- compound: "CO[C@H]1C/C(C)=C/[C@@H](C/C=C/c2cc[n+]([O-])cc2)C(=O)C[C@H](O)[C@@H](C)[C@@H](/C(C)=C/[C@@H]2CC[C@@H](O)[C@H](OC)C2)OC(=O)[C@@H]2CCCCN2C(=O)C(=O)[C@]2(O)O[C@H]([C@@H](OC)C1)[C@@H](OC)C[C@H]2C"
  targetOrSystem: "FKBP12 (Homo sapiens (Human), UniProt P62942)"
  quantitativeResult: 9.68

====

Listed here: items and their measured RapaLink-1 Blockade.
system: p-S6 level in MCF7 cells; experiment: Western blot of p-S6 level in MCF7 cells after combination treatment with Rapa/Rapalink and candidate compound (blockade score); format: cell-based; settings: 10 nM Rapalink + 10 μM candidate compound, 24 h, p-S6 level as fraction of DMSO control

- compound: "CO[C@H]1C/C(C)=C/[C@@H](C/C=C/c2ccncc2)C(=O)C[C@H](O)[C@@H](C)[C@@H](/C(C)=C/[C@@H]2CC[C@@H](O)[C@H](OC)C2)OC(=O)[C@@H]2CCCCN2C(=O)C(=O)[C@]2(O)O[C@H]([C@@H](OC)C1)[C@@H](OC)C[C@H]2C"
  RapaLink-1 Blockade: "3 (>70%)"
- compound: "CO[C@H]1C/C(C)=C/[C@@H](CCCC(=O)O)C(=O)C[C@H](O)[C@@H](C)[C@@H](/C(C)=C/[C@@H]2CC[C@@H](O)[C@H](OC)C2)OC(=O)[C@@H]2CCCCN2C(=O)C(=O)[C@]2(O)O[C@H]([C@@H](OC)C1)[C@@H](OC)C[C@H]2C"
  RapaLink-1 Blockade: "0 (<20%)"
- compound: "CCC(C)(C)C(=O)C(=O)N1CCCC[C@H]1C(=O)O[C@H](CCc1ccc(OC)c(OC)c1)c1cccc(N)c1 [SLF, reference compound]"
  RapaLink-1 Blockade: "0 (<20%)"
- compound: "CO[C@H]1C/C(C)=C/[C@@H](C/C=C/c2cccc[n+]2[O-])C(=O)C[C@H](O)[C@@H](C)[C@@H](/C(C)=C/[C@@H]2CC[C@@H](O)[C@H](OC)C2)OC(=O)[C@@H]2CCCCN2C(=O)C(=O)[C@]2(O)O[C@H]([C@@H](OC)C1)[C@@H](OC)C[C@H]2C"
  RapaLink-1 Blockade: "1 (20-40%)"
- compound: "CO[C@H]1C/C(C)=C/[C@@H](CCCSC[C@H](N)C(=O)O)C(=O)C[C@H](O)[C@@H](C)[C@@H](/C(C)=C/[C@@H]2CC[C@@H](O)[C@H](OC)C2)OC(=O)[C@@H]2CCCCN2C(=O)C(=O)[C@]2(O)O[C@H]([C@@H](OC)C1)[C@@H](OC)C[C@H]2C"
  RapaLink-1 Blockade: "1 (20-40%)"
- compound: "CO[C@H]1C/C(C)=C/[C@@H](CCCc2cccc[n+]2[O-])C(=O)C[C@H](O)[C@@H](C)[C@@H](/C(C)=C/[C@@H]2CC[C@@H](O)[C@H](OC)C2)OC(=O)[C@@H]2CCCCN2C(=O)C(=O)[C@]2(O)O[C@H]([C@@H](OC)C1)[C@@H](OC)C[C@H]2C"
  RapaLink-1 Blockade: "3 (>70%)"
- compound: "CO[C@H]1C/C(C)=C/[C@@H](CCCc2cc[n+]([O-])cc2)C(=O)C[C@H](O)[C@@H](C)[C@@H](/C(C)=C/[C@@H]2CC[C@@H](O)[C@H](OC)C2)OC(=O)[C@@H]2CCCCN2C(=O)C(=O)[C@]2(O)O[C@H]([C@@H](OC)C1)[C@@H](OC)C[C@H]2C"
  RapaLink-1 Blockade: "3 (>70%)"
- compound: "CCC(C)(C)C(=O)C(=O)N1CCCC[C@H]1C(=O)O[C@H](CCc1ccc(OC)c(OC)c1)c1cccc(NC(=O)Cc2ccccn2)c1"
  RapaLink-1 Blockade: "0 (<20%)"
- compound: "CO[C@H]1C/C(C)=C/[C@@H](CCCc2ccccn2)C(=O)C[C@H](O)[C@@H](C)[C@@H](/C(C)=C/[C@@H]2CC[C@@H](O)[C@H](OC)C2)OC(=O)[C@@H]2CCCCN2C(=O)C(=O)[C@]2(O)O[C@H]([C@@H](OC)C1)[C@@H](OC)C[C@H]2C"
  RapaLink-1 Blockade: "3 (>70%)"
